Target: HIV-1 Reverse Transcriptase (Human immunodeficiency virus type 1 group M subtype B, UniProt P03366)
Construct: Lys101, Val179 (p66 subunit) and Glu138 (p51 subunit); purchased Roche
Assay: HIV-1 RT inhibitory action, colorimetric photometric immunoassay kit (Roche)
Type: biochemical
Details: IC50 (μM), 45 min pre-incubation, 2 h at 37 °C
Each entry below carries its recorded IC50.
Form entry: value (µM) — number only.

> print(dat)
                                   molecule  readout.type  experimental.value
1  COc1cccc2sc(N3C(=O)CSC3c3ccc(F)cc3)nc12 (stereo not shown)          IC50                2.08
2  COc1ccc(C2SCC(=O)N2c2nc3c(OC)cccc3s2)cc1 (stereo not shown)          IC50                2.69
3  O=C1CSC(c2ccc(Cl)cc2)N1c1nc2c(Cl)cccc2s1 (stereo not shown)          IC50                   4

**Q:** Return value of IC50 for input O=C1CSC(c2ccc(F)cc2)N1c1nc2ccc(F)cc2s1 (stereo not shown) , no commentary.
**A:** 0.15

----------
Biological target: HIV-1 Reverse Transcriptase (Human immunodeficiency virus type 1 group M subtype B, UniProt P03366)
Construct: Lys101, Val179 (p66 subunit) and Glu138 (p51 subunit); purchased Roche
Assay: HIV-1 RT inhibitory action, colorimetric photometric immunoassay kit (Roche)
Type: biochemical
Conditions: IC50 (μM), 45 min pre-incubation, 2 h at 37 °C
Description: For the evaluation of the HIV-1 Reverse Transcriptase activity, the colorimetric photometric immunoassay kit provided by Roche was used. […] The total-activity was measured in the absence of inhibitors (compounds) with the addition of an equal volume of the solvent of the compounds to the reaction mixture. […]
We begin with a simple list: items and their reported IC50.
API: value field is a number in µM; no unit string.

Some entries whose results are on file:
> print(dat)
                                    molecule  experimental.value
 1  O=C1CSC(c2ccc(O)cc2)N1c1nc2ccc(Cl)cc2s1 (stereo not shown)               0.001
 2  O=C1CSC(c2ccc(F)cc2)N1c1nc2ccc(Cl)cc2s1 (stereo not shown)                0.26
 3  O=C1CSC(c2ccc([N+](=O)[O-])cc2)N1c1nc2ccc(F)cc2s1 (stereo not shown)                 3.8
 4  COc1cccc2sc(N3C(=O)CSC3c3ccc(Cl)cc3)nc12 (stereo not shown)                 2.6
 5  CCOc1ccc2nc(N3C(=O)CSC3c3ccc(O)cc3)sc2c1 (stereo not shown)                   2
 6  O=C1CSC(c2ccc(O)cc2)N1c1nc2ccc(F)cc2s1 (stereo not shown)                   4
 7  O=C1CSC(c2ccc(O)cc2)N1c1nc2c(Cl)cccc2s1 (stereo not shown)                0.01
 8  O=C1CSC(c2ccc(F)cc2)N1c1nc2c(Cl)cccc2s1 (stereo not shown)               0.001
 9  COc1cccc2sc(N3C(=O)CSC3c3ccc(O)cc3)nc12 (stereo not shown)                2.62
10  COc1cccc2sc(N3C(=O)CSC3c3ccc([N+](=O)[O-])cc3)nc12 (stereo not shown)                 2.2

**Q:** Return IC50 for the following molecule: COc1ccc(C2SCC(=O)N2c2nc3c(Cl)cccc3s2)cc1 (stereo not shown)
**A:** 1.99

**Q:** Give IC50 for COc1ccc2nc(N3C(=O)CSC3c3ccc(Cl)cc3)sc2c1 (stereo not shown)
**A:** 2.76

----------
Molecular target: HIV-1 Reverse Transcriptase (Human immunodeficiency virus type 1 group M subtype B)
Construct: Lys101, Val179 (p66 subunit) and Glu138 (p51 subunit); purchased Roche
Assay: HIV-1 RT inhibitory action, colorimetric photometric immunoassay kit (Roche)
Assay type: biochemical
Label yes (1) when inhibition at 4 µM is at or above 60%; otherwise label no (0).

> print(dat)
                                   compound                          target.or.system  discrete.label
1  O=C1CSC(c2ccc(O)cc2)N1c1nc2c(Cl)cccc2s1 (centres unmarked) [Compound 14]  HIV-1 Reverse Transcriptase (Human immunodeficiency virus type 1 group M subtype B)         yes (1)
2  O=C1CSC(c2ccc(Cl)cc2)N1c1nc2ccc(OC(F)(F)F)cc2s1 (centres unmarked) [Compound 32]  HIV-1 Reverse Transcriptase (Human immunodeficiency virus type 1 group M subtype B)          no (0)
3  O=C1CSC(c2ccc([N+](=O)[O-])cc2)N1c1nc2c(Cl)cccc2s1 (centres unmarked) [Compound 11]  HIV-1 Reverse Transcriptase (Human immunodeficiency virus type 1 group M subtype B)          no (0)

**Q:** Given the entry COc1ccc(C2SCC(=O)N2c2nc3ccc(F)cc3s2)cc1 (centres unmarked) [Compound 6] , answer whether its inhibition at 4 µM meets or surpasses 60%.
**A:** no (0)

**Q:** Check the entry O=C1CSC(c2ccc([N+](=O)[O-])cc2)N1c1nc2ccc(OC(F)(F)F)cc2s1 (centres unmarked) [Compound 31] : does inhibition at 4 µM equal or exceed 60%?
**A:** no (0)

**Q:** Threshold query (inhibition at 4 µM >= 60%) on O=C1CSC(c2c(F)cccc2Cl)N1c1nc2cccc(Cl)c2s1 (centres unmarked) [Compound 2]
**A:** yes (1)

**Q:** State whether the measured inhibition at 4 µM reaches 60%, counting equality as reaching it, for O=C1CSC(c2ccc(O)cc2)N1c1nc2ccc(Cl)cc2s1 (centres unmarked) [Compound 9]
**A:** no (0)

----------
Reported inhibition at 4 µM values for the following compounds.
Molecular target: HIV-1 Reverse Transcriptase (Human immunodeficiency virus type 1 group M subtype B)
Construct: Lys101, Val179 (p66 subunit) and Glu138 (p51 subunit); purchased Roche
Experiment: HIV-1 RT inhibitory action, colorimetric photometric immunoassay kit (Roche)
Type: biochemical
Please reply with the bare figure in % and do not write the unit itself.

> print(dat)
                                   compound  unit.symbol  experimental.value
1  O=C1CSC(c2cccc(Cl)c2Cl)N1c1nc2ccc(OC(F)(F)F)cc2s1 (stereo not shown)            %                  46

**Q:** Determine its reported inhibition at 4 µM: O=C1CSC(c2c(F)cccc2F)N1c1nc2cccc(Cl)c2s1 (stereo not shown)
**A:** 70

**Q:** Entry COc1cccc2sc(N3C(=O)CSC3c3ccc([N+](=O)[O-])cc3)nc12 (stereo not shown) needs its inhibition at 4 µM filled in; supply it.
**A:** 68

**Q:** Write down inhibition at 4 µM measured for item CCOc1ccc2nc(N3C(=O)CSC3c3ccc(OC)cc3)sc2c1 (stereo not shown)
**A:** 76

**Q:** Supply inhibition at 4 µM value. Item: COc1ccc(C2SCC(=O)N2c2nc3c(Cl)cccc3s2)cc1 (stereo not shown)
**A:** 65

----------
Molecular target: HIV-1 Reverse Transcriptase (Human immunodeficiency virus type 1 group M subtype B)
Construct: Lys101, Val179 (p66 subunit) and Glu138 (p51 subunit); purchased Roche
Assay: HIV-1 RT inhibitory action, colorimetric photometric immunoassay kit (Roche)
Format: biochemical
readout.type: inhibition at 4 µM (%)
Unit % implied. Number only.

Use these answered entries as a reference point.
> print(dat)
                                   compound  unit.symbol  experimental.value
1  O=C1CSC(c2ccc(Cl)cc2)N1c1nc2ccc(F)cc2s1 (centres unmarked)            %                  44
2  O=C1CSC(c2ccc(Cl)cc2)N1c1nc2c(Cl)cccc2s1 (centres unmarked)            %                  50
3  COc1cccc2sc(N3C(=O)CSC3c3ccc(F)cc3)nc12 (centres unmarked)            %                  69
4  O=C1CSC(c2ccc(O)cc2)N1c1nc2ccc(F)cc2s1 (centres unmarked)            %                  50

**Q:** Write down the reported inhibition at 4 µM (system: HIV-1 Reverse Transcriptase (Human immunodeficiency virus type 1 group M subtype B)) of CCOc1ccc2nc(N3C(=O)CSC3c3ccc(O)cc3)sc2c1 (centres unmarked)
**A:** 62

**Q:** Param request: inhibition at 4 µM | system HIV-1 Reverse Transcriptase (Human immunodeficiency virus type 1 group M subtype B) | item COc1cccc2sc(N3C(=O)CSC3c3ccc(O)cc3)nc12 (centres unmarked)
**A:** 71

----------
# inhibition at 4 µM listing for each entry below
Molecular target: HIV-1 Reverse Transcriptase (Human immunodeficiency virus type 1 group M subtype B, UniProt P03366)
Construct: Lys101, Val179 (p66 subunit) and Glu138 (p51 subunit); purchased Roche
Assay: HIV-1 RT inhibitory action, colorimetric photometric immunoassay kit (Roche)
Type: biochemical
Write down the value, and be sure its unit follows.

Answered cases to consult:
> print(dat)
                                   compound  experimental.value
1  COc1ccc2nc(N3C(=O)CSC3c3ccc([N+](=O)[O-])cc3)sc2c1 (centres unmarked) [Compound 21]                 50%
2  CCOc1ccc2nc(N3C(=O)CSC3c3ccc(F)cc3)sc2c1 (centres unmarked) [Compound 24]                 36%
3  O=C1CSC(c2ccc(F)cc2)N1c1nc2c(Cl)cccc2s1 (centres unmarked) [Compound 10]                 63%
4  CCOc1ccc2nc(N3C(=O)CSC3c3ccc(Cl)cc3)sc2c1 (centres unmarked) [Compound 26]                 73%
5  O=C1CSC(c2c(Cl)cccc2Cl)N1c1nc2ccc(OC(F)(F)F)cc2s1 (centres unmarked) [Compound 29]                 49%
6  COc1ccc2nc(N3C(=O)CSC3c3ccc(Cl)cc3)sc2c1 (centres unmarked) [Compound 22]                 72%

Read the next record carefully.
**Q:** For the compound O=C1CSC(c2ccc(F)cc2)N1c1nc2ccc(F)cc2s1 (centres unmarked) [Compound 3] , report inhibition at 4 µM.
**A:** 72%
